test system: P388 leukemia ip, CD2F1 mice, survival T/C; experiment: NCI In Vivo Anticancer Drug Screen. Data for tumor model P388 Leukemia (intraperitoneal) in CD2F1 (CDF1) mice; details: endpoint: median survival time; dose: 100.0 mg/kg/injection; schedule: Q01DX009 (ip); vehicle: saline with Tween-80; higher = longer survival
Inconclusive results and toxic doses are left out.
endpoint label: T/C

In [3]: df
Out[3]:
                                    compound    value_observed
 0  Nc1ccc(S(=O)(=O)Nc2ccccc2-c2nc(N)nc(N)n2)cc1   97 % of control
 1                   Cc1cc(Cl)ccc1S(=O)(=O)F  113 % of control
 2  S=C1SCN(C2CCCCCCCCCCC2)CN1C1CCCCCCCCCCC1   93 % of control
 3                  Nc1nc2[nH]ncc2c(=O)[nH]1   90 % of control
 4                                NC(=O)CCBr   97 % of control
 5  CC(C)(C)C(=O)CC(=O)C(C)(C)C.[Cl][Sb]1([Cl])[c]2ccccc2Cc2cccc[c]21  108 % of control
 6  C=C(C)C(=O)OCCO (tested in a mixture with another compound)  100 % of control
 7                    COc1c(O)ccc2c1CCCCC2=O  103 % of control
 8                        CCCCCN(CCCCC)CCCCC  101 % of control
 9          O=C1c2cccnc2C(=O)c2c(O)ccc(O)c21   95 % of control
10              COc1cc(OC)c(C(C)=O)c(OC)c1OC  113 % of control
11  CN(C)c1ccc(C(=O)C(O)c2ccccc2Cl)cc1 (stereo not drawn)   96 % of control
12                       COC(=O)/C=C/N1CCCC1  101 % of control

---

tested on: P388 leukemia ip, CD2F1 mice, survival T/C; assay: NCI In Vivo Anticancer Drug Screen. Data for tumor model P388 Leukemia (intraperitoneal) in CD2F1 (CDF1) mice; conditions: endpoint: median survival time; dose: 100.0 mg/kg/injection; schedule: Q01DX005 (ip); vehicle: Klucel (hydroxypropylcellulose) (HPC); higher = longer survival
Toxic doses and inconclusive results are not listed.
Listing: T/C of selected compounds
endpoint label: T/C

                                    compound    value_observed
 0  COc1ccc(N2C(=O)c3ccc4c5ccc6c7c(ccc(c8ccc(c3c48)C2=O)c75)C(=O)NC6=O)cc1   90 % of control
 1  CC(=O)OCC1OC(c2ccccc2)C/C(=N/O)C1OC(C)=O (configuration not stated)   93 % of control
 2                 COC(=O)CCSC(=S)NCc1ccccc1   96 % of control
 3   c1cnc2c3ccncc3c3nc(-c4ccncc4)[nH]c3c2c1   88 % of control
 4  COC(=O)N(C)C1=CCC(C(C)(C)C)CC1 (configuration not stated)  107 % of control
 5  CCN(CC)CCOC(=O)C(C)c1cccc2c(=O)cc(-c3ccccc3)oc12 (configuration not stated)  101 % of control
 6  O=C(NC[N+]12CCO[B-]1(c1cccc(Cl)c1)OCC2)c1ccccc1O (configuration not stated)  104 % of control
 7  OCC1OC(O)C(N=Cc2ccccc2O)C(O)C1O (configuration not stated)  104 % of control
 8  OCc1c(-c2ccc(Cl)cc2)c(-c2ccc(F)cc2)c2n1CCC2  100 % of control
 9        N#CC(C#N)=C1c2ccccc2C(=O)c2ccccc21   88 % of control
10          COc1ccccc1-n1c(C)nc2[nH]ncc2c1=O   97 % of control
11  O=C1NC(O)c2cc(O)ccc2O1 (configuration not stated)  100 % of control

Taken from PubChem BioAssay AID330.
